target: AR (Homo sapiens, UniProt P10275+P40337, T878A); construct: degradation Dmax of AR in LNCaP cells; endogenous in cells; host or cells: LNCaP; assay: AR degradation in LNCaP cells (androgen receptor ELISA); assay type: cell-based; conditions: LNCaP cells; read-out: AR degradation potency DC50
Sequence (Q15370 whole entry): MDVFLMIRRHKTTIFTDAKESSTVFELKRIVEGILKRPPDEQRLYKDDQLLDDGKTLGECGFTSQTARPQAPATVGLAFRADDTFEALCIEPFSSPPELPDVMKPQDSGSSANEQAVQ
Sequence (P40337 whole entry): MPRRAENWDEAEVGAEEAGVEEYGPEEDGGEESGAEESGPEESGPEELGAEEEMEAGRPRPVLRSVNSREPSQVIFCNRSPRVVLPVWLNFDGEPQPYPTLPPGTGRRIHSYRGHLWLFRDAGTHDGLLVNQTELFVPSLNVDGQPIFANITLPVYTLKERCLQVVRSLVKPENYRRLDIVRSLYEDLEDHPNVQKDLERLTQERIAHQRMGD
Sequence (P10275 whole entry T878A): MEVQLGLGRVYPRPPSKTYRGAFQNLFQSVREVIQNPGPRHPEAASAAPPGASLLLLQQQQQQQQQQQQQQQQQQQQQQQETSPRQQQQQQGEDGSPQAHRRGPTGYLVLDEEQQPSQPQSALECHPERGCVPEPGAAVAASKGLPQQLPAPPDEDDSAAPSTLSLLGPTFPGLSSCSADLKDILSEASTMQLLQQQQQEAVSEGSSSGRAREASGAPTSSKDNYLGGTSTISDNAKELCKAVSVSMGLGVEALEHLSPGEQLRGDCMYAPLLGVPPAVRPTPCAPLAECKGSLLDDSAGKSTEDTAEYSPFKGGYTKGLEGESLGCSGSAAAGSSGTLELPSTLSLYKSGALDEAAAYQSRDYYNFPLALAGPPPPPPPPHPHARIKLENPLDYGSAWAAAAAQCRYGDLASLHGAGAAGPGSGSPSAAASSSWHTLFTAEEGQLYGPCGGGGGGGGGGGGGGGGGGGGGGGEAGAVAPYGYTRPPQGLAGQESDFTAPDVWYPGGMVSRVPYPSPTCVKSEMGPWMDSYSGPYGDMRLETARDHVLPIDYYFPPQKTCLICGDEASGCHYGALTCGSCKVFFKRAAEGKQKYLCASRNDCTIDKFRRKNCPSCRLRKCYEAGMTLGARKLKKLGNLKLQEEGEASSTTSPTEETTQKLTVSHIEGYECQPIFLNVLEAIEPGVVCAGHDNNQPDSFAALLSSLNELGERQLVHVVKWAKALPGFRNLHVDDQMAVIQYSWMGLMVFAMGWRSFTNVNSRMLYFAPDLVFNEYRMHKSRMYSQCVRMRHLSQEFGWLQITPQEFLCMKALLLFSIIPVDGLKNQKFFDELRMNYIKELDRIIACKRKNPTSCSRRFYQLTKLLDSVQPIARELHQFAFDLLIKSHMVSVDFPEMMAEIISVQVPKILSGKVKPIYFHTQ
Sequence (Q15369 whole entry, further chain): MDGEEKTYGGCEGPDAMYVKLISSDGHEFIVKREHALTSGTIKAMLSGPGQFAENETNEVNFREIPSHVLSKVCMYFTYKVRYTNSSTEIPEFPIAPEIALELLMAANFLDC
endpoint: log10 DC50 (log10 of the value in µM)

compound-structure	log10 DC50
Cc1ncsc1-c1ccc(CNC(=O)[C@@H]2C[C@@H](O)CN2C(=O)[C@@H](NC(=O)COCCOCCOCCCOCCOCCOc2ccc(N3C(=S)N(c4ccc(C#N)c(C(F)(F)F)c4)C(=O)C3(C)C)cc2)C(C)(C)C)cc1	-0.66
Cc1ncsc1-c1ccc(CNC(=O)[C@@H]2C[C@@H](O)CN2C(=O)[C@@H](NC(=O)COCCOCCOCCCCOCCOCCOc2ccc(N3C(=S)N(c4ccc(C#N)c(C(F)(F)F)c4)C(=O)C3(C)C)cc2)C(C)(C)C)cc1	-1.54
Cc1ncsc1-c1ccc(CNC(=O)[C@@H]2C[C@@H](O)CN2C(=O)[C@@H](NC(=O)COCCOCCCOc2ccc(N3C(=S)N(c4ccc(C#N)c(C(F)(F)F)c4)C(=O)C3(C)C)cc2)C(C)(C)C)cc1	-1.14
Cc1ncsc1-c1ccc(CNC(=O)[C@@H]2C[C@@H](O)CN2C(=O)[C@@H](NC(=O)COCCCOCCCOc2ccc(N3C(=S)N(c4ccc(C#N)c(C(F)(F)F)c4)C(=O)C3(C)C)cc2)C(C)(C)C)cc1	-0.41
Cc1ncsc1-c1ccc(CNC(=O)[C@@H]2C[C@@H](O)CN2C(=O)[C@@H](NC(=O)COCCOc2ccc(N3C(=S)N(c4ccc(C#N)c(C(F)(F)F)c4)C(=O)C3(C)C)cc2)C(C)(C)C)cc1	0.23
Cc1ncsc1-c1ccc(CNC(=O)[C@@H]2C[C@@H](O)CN2C(=O)[C@@H](NC(=O)COCCCOCCCCCOc2ccc(N3C(=S)N(c4ccc(C#N)c(C(F)(F)F)c4)C(=O)C3(C)C)cc2)C(C)(C)C)cc1	-1.46
Cc1ncsc1-c1ccc(CNC(=O)[C@@H]2C[C@@H](O)CN2C(=O)[C@@H](NC(=O)COCCOCCOCCOCCOCCOCCOc2ccc(N3C(=S)N(c4ccc(C#N)c(C(F)(F)F)c4)C(=O)C3(C)C)cc2)C(C)(C)C)cc1	0.48
Cc1ncsc1-c1ccc(CNC(=O)[C@@H]2C[C@@H](O)CN2C(=O)[C@@H](NC(=O)COCCCCOCCCCCOc2ccc(N3C(=S)N(c4ccc(C#N)c(C(F)(F)F)c4)C(=O)C3(C)C)cc2)C(C)(C)C)cc1	-1.22
